The measured values listed here are drawn from patent US20260242478A1.

# Phage binding ELISA signal, Anti-PSMA Fab in the presence of PSMA antigen per record follows
- MEASURED ON: T1, PSMA Fab (006 PSMA Fab)
- T1 construct: also called Anti-PSMA Fab; anti-PSMA Fab
- EXPERIMENTAL PROTOCOL: phage ELISA; biotinylated PSMA Fab on neutravidin plate pre-incubated with PSMA antigen as competitor, clonal phage supernatant, anti-M13 HRP detection
ENDPOINT NAME: Phage binding ELISA signal, Anti-PSMA Fab in the presence of PSMA antigen

* DWVRCVPEWMCLGF (Peptide-180 library clone, tested as clonal phage supernatant (peptide fused to pIII of the bacteriophage)) [Phage-3058] | 0.106
* EFAMCRPVWMCWGF (Peptide-180 library clone, tested as clonal phage supernatant (peptide fused to pIII of the bacteriophage)) [Phage-3059] | 0.142
* IEMMCRPSWMCDWL (Peptide-180 library clone, tested as clonal phage supernatant (peptide fused to pIII of the bacteriophage)) [Phage-3056] | 0.0844
* ELYKCVPSWMCYGF (Peptide-180 library clone, tested as clonal phage supernatant (peptide fused to pIII of the bacteriophage)) [Phage-3050] | 0.0696
* VDKVCRPMWMCAGF (Peptide-180 library clone, tested as clonal phage supernatant (peptide fused to pIII of the bacteriophage)) [Phage-3046] | 0.126
* VAPSCVPLWMCVGM (Peptide-180 library clone, tested as clonal phage supernatant (peptide fused to pIII of the bacteriophage)) [Phage-3053] | 0.68
* DMRLCRPVWMCEGF (Peptide-180 library clone, tested as clonal phage supernatant (peptide fused to pIII of the bacteriophage)) [Phage-3052] | 0.13
* PGQVCIPEWMCTGF (Peptide-180 library clone, tested as clonal phage supernatant (peptide fused to pIII of the bacteriophage)) [Phage-3051] | 0.0874
* PGHVCRPAWMCEGF (Peptide-180 library clone, tested as clonal phage supernatant (peptide fused to pIII of the bacteriophage)) [Phage-3048] | 0.106
* PVELCRPAWMCWGF (Peptide-180 library clone, tested as clonal phage supernatant (peptide fused to pIII of the bacteriophage)) [Phage-3055] | 0.103
* VGNMCVPEWMCVGF (Peptide-180 library clone, tested as clonal phage supernatant (peptide fused to pIII of the bacteriophage)) [Phage-3047] | 0.0878
* TGPVCIPKWMCFGF (Peptide-180 library clone, tested as clonal phage supernatant (peptide fused to pIII of the bacteriophage)) [Phage-3057] | 0.075
* VNVKCTPPWMCFGF (Peptide-180 library clone, tested as clonal phage supernatant (peptide fused to pIII of the bacteriophage)) [Phage-3049] | 0.0865
* DWIRCLPAWMCTGF (Peptide-180 library clone, tested as clonal phage supernatant (peptide fused to pIII of the bacteriophage)) [Phage-3054] | 0.0848
